The reported numbers originate from PubChem BioAssay (NCATS).

# protocolDescription: Identifying Small Molecule Inhibitors of Pancreatic Cancer Stem Cells (A278, Adherent) (AID 1259361);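 note: viability read after 48 h compound exposure; nearly all actives have a fitted effect of over 35% in size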
# measurementConditions: series mostly up to 46.1 µM
Results filed as inconclusive are left out. Active and inactive are the calls of the source. Calls come from the whole dose curve; as a rule, active = well fitted cell-killing curve with a large enough effect; inconclusive = small, poorly fitted or top-dose-only effect; inactive = flat fitted curve, though single readings scatter.
Pick one: active, inactive

O=c1[nH]nc(Sc2ncc([N+](=O)[O-])s2)n1-c1ccc2c(c1)OCCO2 = active
Nc1ccccc1NC(=O)c1ccc(CNC(=O)OCc2cccnc2)cc1 = inactive

What call does the record list for CCC[C@H](NC(=O)C(C#N)=Cc1cccc(Br)n1)c1ccccc1 ? active

---

# protocolDescription: Quantitative High-Throughput drug screen in 47 multiple myeloma cell lines against the NCATS MIPE library collection: KMM1_JCRB cell viability assay (AID 1918960); note: potency is the fitted concentration of half-maximal effect; nearly all actives have a fitted effect of over 30% in size
# measurementConditions: KMM1 myeloma viability, CellTiter-Glo ATP luminescence, 48 h; series mostly up to 45.8 µM
Inconclusive results are not listed. The source made the active and inactive calls. Calls come from the whole dose curve; as a rule, active = well fitted cell-killing curve with a large enough effect; inconclusive = small, poorly fitted or top-dose-only effect, or effect the other way; inactive = no such curve, though single readings can be large or run the other way.
Pick one: label 1 (active), label 0 (inactive)

Cc1cc(Nc2nc(N[C@@H](C)c3ccc(F)cc3)c(C#N)cc2F)n[nH]1 = label 1

What call does the record list for CN(C)Cc1c(C(=O)NCCOc2ccc(C(=O)NO)cc2)oc2ccccc12 ? label 1

Record: CCN(CC)CCCCNc1ncc2cc(-c3cc(OC)cc(OC)c3)c(NC(=O)NC(C)(C)C)nc2n1 label 1

---

# protocolDescription: qHTS Screen of the MIPE 4.0 Collection Against Ewings Sarcoma (TC71) (AID 1259253); note: nearly all actives have a fitted effect of over 40% in size
# measurementConditions: TC71 Ewing sarcoma viability, CellTiter-Glo, 48 h; series mostly up to 45.8 µM
Records with an inconclusive call do not appear. The source made the active and inactive calls. Calls come from the whole dose curve; as a rule, active = well fitted inhibition curve with a large enough effect; inconclusive = small, poorly fitted or top-dose-only effect; inactive = no such curve, though single readings can be large or run the other way.
Pick one: active, inactive

Example cases with answers are listed next.
Nc1nc(NCCNc2ncc(-n3ccnc3)c(-c3ccc(Cl)cc3Cl)n2)ccc1[N+](=O)[O-] = inactive
Nc1nc(-c2nn(Cc3ccccc3F)c3ncccc23)nc(N)c1N1CCOCC1 = inactive
C[C@@H](Oc1cc(-c2cnn(C3CCNCC3)c2)cnc1N)c1c(Cl)ccc(F)c1Cl = active
Cc1cn(-c2cc(NC(=O)c3ccc(C)c(Nc4nccc(-c5cccnc5)n4)c3)cc(C(F)(F)F)c2)cn1 = inactive

What call does the record list for CC(=O)SC[C@@H](C)C(=O)N1CCC[C@H]1C(=O)N[C@@H](Cc1ccccc1)C(=O)O ? inactive

Record: CC(C)CC(=O)Nc1n[nH]c2c1CN(C(=O)C1CCN(C)CC1)C2(C)C active

Record: CCCn1c(=O)c2[nH]c(-c3cnn(Cc4cccc(C(F)(F)F)c4)c3)nc2n(CC)c1=O inactive

Record: CCCNC(=O)Nc1ccc(Oc2ncnc3cc(OC)c(OC)cc23)cc1Cl inactive

Record: NC1(Cc2ccc(Cl)cc2)CCN(c2ncnc3[nH]ccc23)CC1 active

---

# protocolDescription: qHTS of pediatric cancer cell lines to identify multiple opportunities for drug repurposing: Confirmatory screen for DAOY cells (AID 1347114); note: potency is the fitted concentration of half-maximal effect; nearly all actives have a fitted effect of over 65% in size
# measurementConditions: DAOY medulloblastoma cells viability, cytotoxicity qHTS; series mostly up to 45.9 µM
Results filed as inconclusive are left out. The source made the active and inactive calls. Calls come from the whole dose curve; as a rule, active = well fitted cell-killing curve with a large enough effect; inconclusive = small, poorly fitted or top-dose-only effect; inactive = no such curve, though single readings can be large or run the other way.
Hi there, I'd appreciate the recorded Potency for every entry that follows.

Reference set (2 entries):
CC(C)(C)c1cnc(CSc2cnc(NC(=O)C3CCNCC3)s2)o1 = 1.17 µM (active)
Cc1nc2cnc3ccc(C#Cc4cccnc4)cc3c2n1-c1ccc(C(C)(C)C#N)cc1 = 13.5 µM (active)

Turning now to a further molecule:
Entry CC1(C)CCC(c2ccc(Cl)cc2)=C(CN2CCN(c3ccc(C(=O)NS(=O)(=O)c4ccc(N[C@H](CCN5CCOCC5)CSc5ccccc5)c(S(=O)(=O)C(F)(F)F)c4)cc3)CC2)C1 has what Potency? 9.27 µM (active)
